Target: FLK-1 receptor (Mus musculus, UniProt P35918)
Construct: expressed in transfected cells; host or cells: NIH3T3 C7#3
Sequence (P35918 20-1345): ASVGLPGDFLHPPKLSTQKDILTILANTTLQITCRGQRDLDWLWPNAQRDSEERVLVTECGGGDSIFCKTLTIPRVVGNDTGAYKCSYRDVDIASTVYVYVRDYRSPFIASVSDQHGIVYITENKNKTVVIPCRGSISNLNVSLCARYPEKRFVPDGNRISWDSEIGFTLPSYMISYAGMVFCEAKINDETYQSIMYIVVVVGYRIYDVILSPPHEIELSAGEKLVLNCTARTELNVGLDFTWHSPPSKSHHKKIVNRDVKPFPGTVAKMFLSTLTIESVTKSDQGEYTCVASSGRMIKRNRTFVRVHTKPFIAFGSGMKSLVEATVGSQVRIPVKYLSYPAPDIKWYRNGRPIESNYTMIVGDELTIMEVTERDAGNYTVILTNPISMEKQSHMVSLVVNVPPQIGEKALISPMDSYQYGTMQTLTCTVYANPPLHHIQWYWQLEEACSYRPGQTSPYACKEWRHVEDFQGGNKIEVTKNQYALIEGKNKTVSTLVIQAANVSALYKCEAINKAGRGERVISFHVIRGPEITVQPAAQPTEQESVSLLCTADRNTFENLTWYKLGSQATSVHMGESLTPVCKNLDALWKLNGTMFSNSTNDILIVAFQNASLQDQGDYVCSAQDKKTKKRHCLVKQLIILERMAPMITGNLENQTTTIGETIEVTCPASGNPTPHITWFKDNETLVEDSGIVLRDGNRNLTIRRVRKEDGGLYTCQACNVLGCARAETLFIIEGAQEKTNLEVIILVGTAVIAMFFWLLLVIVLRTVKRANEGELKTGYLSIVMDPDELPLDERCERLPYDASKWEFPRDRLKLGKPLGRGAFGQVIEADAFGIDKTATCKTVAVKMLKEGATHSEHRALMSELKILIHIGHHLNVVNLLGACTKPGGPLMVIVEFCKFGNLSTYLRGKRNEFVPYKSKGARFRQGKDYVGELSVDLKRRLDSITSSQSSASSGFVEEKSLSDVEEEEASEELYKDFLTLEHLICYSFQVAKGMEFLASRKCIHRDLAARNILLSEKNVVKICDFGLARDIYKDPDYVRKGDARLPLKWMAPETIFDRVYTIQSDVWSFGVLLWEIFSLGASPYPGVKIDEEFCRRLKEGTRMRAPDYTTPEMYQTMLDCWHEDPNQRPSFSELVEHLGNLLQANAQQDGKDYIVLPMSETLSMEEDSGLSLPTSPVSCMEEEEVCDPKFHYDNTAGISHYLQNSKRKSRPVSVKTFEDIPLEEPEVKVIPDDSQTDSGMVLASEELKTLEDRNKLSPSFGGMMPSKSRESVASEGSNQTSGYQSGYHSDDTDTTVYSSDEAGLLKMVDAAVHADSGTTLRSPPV
Assay: FLK-1 ELISA (kinase activity of the FLK-1 receptor in FLK-1/NIH3T3 cells, VEGF stimulated)
Type: cell-based
The following molecules are listed with their measured Fik Kinase %Inhibition values.
MEASURE: Fik Kinase %Inhibition (%)

- MOLECULE: "O=C1Nc2c(Br)cc(Br)cc2C1=Cc1cccc(F)c1O [10734/A08]"
  MEASURE: "Fik Kinase %Inhibition"
  RESULT: 0.1
- MOLECULE: "O=C1Nc2ccc(I)cc2C1=Cc1c(Br)cnn1-c1ccc(Cl)cc1 [10725/B10]"
  MEASURE: "Fik Kinase %Inhibition"
  RESULT: 5.1
- MOLECULE: "COc1cccc(C=C2C(=O)Nc3ccc(S(=O)(=O)N4CCOCC4)cc32)c1O [10723/F03]"
  MEASURE: "Fik Kinase %Inhibition"
  RESULT: 4.4
- MOLECULE: "O=C1Nc2ccc(CCCl)cc2C1=Cc1ccc(N2CCOCC2)cc1 [10725/G08]"
  MEASURE: "Fik Kinase %Inhibition"
  RESULT: -14.8
- MOLECULE: "CNS(=O)(=O)c1ccc2c(c1)C(=Cc1coc3ccc(Cl)cc3c1=O)C(=O)N2 [10730/D06]"
  MEASURE: "Fik Kinase %Inhibition"
  RESULT: 5.8
- MOLECULE: "COC(=O)c1[nH]c(C)c(C=C2C(=O)Nc3ccc(S(=O)(=O)N4CCOCC4)cc32)c1C(=O)OC [10718/F07]"
  MEASURE: "Fik Kinase %Inhibition"
  RESULT: 16.5
- MOLECULE: "Cc1cc(C=C2C(=O)Nc3ccc(I)cc32)oc1C [10730/B11]"
  MEASURE: "Fik Kinase %Inhibition"
  RESULT: 1.9
- MOLECULE: "CC(=O)Oc1ccc(C=C2C(=O)Nc3ccc(Br)c(C)c32)cc1OC(C)=O [10723/C05]"
  MEASURE: "Fik Kinase %Inhibition"
  RESULT: 5.6
- MOLECULE: "O=C1Nc2ccc(CCCl)cc2C1=Cc1ccco1 [10718/G10]"
  MEASURE: "Fik Kinase %Inhibition"
  RESULT: 7.1
- MOLECULE: "CNS(=O)(=O)c1ccc2c(c1)C(=Cc1ccc(O)c(O)c1O)C(=O)N2 [10723/D02]"
  MEASURE: "Fik Kinase %Inhibition"
  RESULT: 2.0
- MOLECULE: "O=C1Nc2ccc(S(=O)(=O)N3CCOCC3)cc2C1=Cc1c[nH]c(=O)[nH]c1=O [10731/F08]"
  MEASURE: "Fik Kinase %Inhibition"
  RESULT: 9.2
- MOLECULE: "CNS(=O)(=O)c1ccc2c(c1)C(=Cc1coc3ccc(C)cc3c1=O)C(=O)N2 [10731/D06]"
  MEASURE: "Fik Kinase %Inhibition"
  RESULT: 16.1
- MOLECULE: "O=CN1CCN(c2ccc(C=C3C(=O)Nc4ccc(CCCl)cc43)cc2)CC1 [10725/G07]"
  MEASURE: "Fik Kinase %Inhibition"
  RESULT: 4.8
- MOLECULE: "CCOC(=O)c1cc(C=C2C(=O)Nc3ccc(CCCl)cc32)oc1C [10718/G06]"
  MEASURE: "Fik Kinase %Inhibition"
  RESULT: 9.8
- MOLECULE: "CCOC(=O)c1c(C)[nH]c(C=C2C(=O)Nc3ccc(S(=O)(=O)Nc4ccc(C(F)(F)F)cc4)cc32)c1C [10718/E02]"
  MEASURE: "Fik Kinase %Inhibition"
  RESULT: 19.7
- MOLECULE: "Cc1ccc2occ(C=C3C(=O)Nc4ccc(I)cc43)c(=O)c2c1 [10731/B06]"
  MEASURE: "Fik Kinase %Inhibition"
  RESULT: 6.2
- MOLECULE: "O=C1Nc2ccc(CCCl)cc2C1=Cc1c(F)cccc1C(F)(F)F [10728/G09]"
  MEASURE: "Fik Kinase %Inhibition"
  RESULT: 6.8
- MOLECULE: "COc1c(I)cc(C=C2C(=O)Nc3ccc(CCCl)cc32)cc1C(C)(C)C [10732/G11]"
  MEASURE: "Fik Kinase %Inhibition"
  RESULT: 10.9
